Numbers sourced from patent US20210388107A1.

- ASSAY_SYSTEM: T1, human SIRPαBIT expressed on cells (human, UniProt P78324 31-504)
- T1 construct: endogenous on U937 cells or transiently expressed on ExpiCHO-S cells; in the SHP-1 assay a ProLink-tagged form on Jurkat cells; also called huSIRPαBIT; U937 cells (huSIRPαBIT)
- T1 sequence (P78324 31-504 limits assumed): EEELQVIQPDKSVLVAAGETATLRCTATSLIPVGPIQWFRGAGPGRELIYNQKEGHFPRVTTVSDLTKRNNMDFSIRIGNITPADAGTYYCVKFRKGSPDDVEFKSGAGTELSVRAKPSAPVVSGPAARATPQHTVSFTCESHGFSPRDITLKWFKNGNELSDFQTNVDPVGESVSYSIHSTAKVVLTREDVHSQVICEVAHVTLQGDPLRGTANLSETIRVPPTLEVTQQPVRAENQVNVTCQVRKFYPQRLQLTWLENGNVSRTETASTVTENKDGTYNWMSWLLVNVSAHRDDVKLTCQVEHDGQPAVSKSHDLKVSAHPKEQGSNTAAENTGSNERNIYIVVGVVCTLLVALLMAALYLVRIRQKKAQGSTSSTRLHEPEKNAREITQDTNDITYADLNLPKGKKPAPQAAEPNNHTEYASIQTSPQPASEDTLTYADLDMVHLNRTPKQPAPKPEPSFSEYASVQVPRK
- PROTOCOL_NOTES: flow cytometry, U937 cells
VALUE_KIND: EC50 (µg/mL)
# unit: µg/mL | format: bare number

Observe how each entry below is paired with its result.
BINDER	EC50, µg/mL
humanized anti-SIRPα antibody 9 (antibody, human IgG1, kappa, L234A L235A, V domains shown, human IgG1 LALA, kappa; also called mAb 9) VH: RQLVESGGGLVQPGGSLRLSCAASGFSLSSHGISWVRQAPGKGLEWVGTIGTGVITYYASWAKGRFTGSKTSSTAYLQMTSLRSEDTAVYYCARGSAWNDPFDYWGQGTLVTVSS VL: DIVMTQSPSSLSASVGDRVTITCQASQSVYGNNDLAWYQQKPGQAPKLLIYLASTLATGVPSRFSGSGSGTDFTLTISSLQPEDFATYYCLGGGDDEADNTFGQGTKVEIKR	2.78
humanized anti-SIRPα antibody 5 (antibody, human IgG1, kappa, L234A L235A, V domains shown, human IgG1 LALA, kappa; also called mAb 5) VH: RQLVESGGGLVQPGGSLRLSCAASGFSLSSHGISWVRQAPGKGLEYIGTIGTGVITYYASWAKGRFTGSKTSSTAYLQMTSLRAEDTAVYYCARGSAWNDPFDYWGQGTLVTVSS VL: DIEMTQSPSSVSASVGDRVTLTCQASQSVYGNNDLAWYQQKPGQAPKLLIYLASTLATGVPSRFSGSGSGTDFTLTISSLQPEDFATYYCLGGGDDEADNVFGGGTKVEIKR	1.6
humanized anti-SIRPα antibody 8 (antibody, human IgG1, kappa, L234A L235A, V domains shown, human IgG1 LALA, kappa; also called mAb 8) VH: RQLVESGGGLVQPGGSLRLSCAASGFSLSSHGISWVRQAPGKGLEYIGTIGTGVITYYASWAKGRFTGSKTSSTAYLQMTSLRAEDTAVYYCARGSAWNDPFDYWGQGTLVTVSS VL: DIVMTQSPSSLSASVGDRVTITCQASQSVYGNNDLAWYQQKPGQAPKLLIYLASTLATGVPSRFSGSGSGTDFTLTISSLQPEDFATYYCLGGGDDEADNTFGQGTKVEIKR	1.04

Shift focus to the following entry.
Could you share which EC50 value was measured for humanized anti-SIRPα antibody 10 (antibody, human IgG1, kappa, L234A L235A, V domains shown, human IgG1 LALA, kappa; also called mAb 10) VH: RQLVESGGGLVQPGGSLRLSCAASGFSLSSHGISWVRQAPGKGLEWVGTIGTGGITYYASWAKGRFTGSKTSSTAYMELSSLRAEDTAVYYCARGSAWNDPFDIWGQGTLVTVSS VL: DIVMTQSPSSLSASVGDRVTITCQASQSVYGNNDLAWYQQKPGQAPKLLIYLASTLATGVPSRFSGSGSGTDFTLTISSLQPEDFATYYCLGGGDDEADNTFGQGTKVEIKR ?
7.11
